Tested on: U251 CNS
Experiment: NCI-60 one-dose screen, 48 h (100 = growth as untreated, 0 = no growth, -100 = all killed)
Conditions: 10 µM unless noted
This is part of a sample that, as a whole, favours compounds with a hit. Of some 83,000 tested, about 20% had one in any assay.
growth of 80% or higher: met. Under 80%: not met.

Inquiry: Hello, I need to know if COc1ccc(-n2c(SCc3nnc(NC(=O)c4ccc(Br)cc4)s3)nc3cc(OC)c(OC)cc3c2=O)cc1 has measured growth not below 80%. Thanks!
Reply text: met

---

Overview of reported growth across a group of compounds:
Test system: PC-3 prostate
Experiment: NCI-60 one-dose screen, 48 h (100 = growth as untreated, 0 = no growth, -100 = all killed)
Conditions: 10 µM unless noted
About 83,000 compounds went through this panel and 20% of them were active in at least one assay; those are over-represented in the sample as a whole.
Could you give me the number in %? Just the number is fine.

Worked examples, 5 compounds total:
{"columns": ["Compound", "Units symbol", "Experimental value"],
 "data": [
  ["COc1cc2nc(Cl)nc(Nc3cccc(C4=Nc5c(N)nc(N)nc5NC(c5ccc6c(c5)OCO6)C4)c3)c2cc1OC (centres undefined)", "%", 63.6],
  ["C#Cc1nc(C(=O)NCCC(=O)Nc2ccc(NC(=O)c3ccc(/C=C/C(=O)c4nccn4C)cc3)cc2)cs1", "%", 42.5],
  ["O=C(CCn1c[n+](CC(=O)c2ccc(F)cc2)c2ccccc21)Nc1cccc2cccnc12", "%", 63.4],
  ["Cc1c(Cl)cccc1S(=O)(=O)Nc1ccc2c(c1)C(=O)N(C1CCC(=O)NC1=O)C2=O (centres undefined)", "%", 95.4],
  ["O=C(Cn1cc[n+](CC(=O)c2ccc(-c3ccccc3)cc2)c1)Nc1cccc2cccnc12", "%", 54.5]
]}

The compound CN1c2ccccc2Sc2cc(C=C(C#N)C#N)ccc21 , when measured on PC-3 prostate, yielded growth of 105

Result for O=C(CN1CCN(c2cc(=O)n(-c3ccccc3)c3ccccc23)CC1)Nc1nc(-c2ccccc2)cs1 , tested on PC-3 prostate, growth: 32.5

Noted growth for Cc1cccc2c3c(sc12)C(c1ccc(F)cc1)C(C#N)=C(/N=C/c1ccc(Cl)cc1)O3 (centres undefined) , tested on PC-3 prostate: 13.6

Value sought: growth, system PC-3 prostate, item C#Cc1nc(C(C)=O)cs1 . Result: 98.4

---

Tested on: OVCAR-5 ovarian
Experiment: NCI-60 one-dose screen, 48 h (100 = growth as untreated, 0 = no growth, -100 = all killed)
Details: 10 µM unless noted
Compounds without any hit were thinned out: in the full panel of roughly 83,000, 20% have a hit.
Attribute measured: growth (%)
Express your answer in %, writing the number without its unit.

Here's what some known entries look like.
{"columns": ["Compound", "Tested system", "growth (%)"],
 "data": [
  ["O=C(CCn1c[n+](CC(=O)c2ccc(F)cc2)c2ccccc21)Nc1cccc2cccnc12", "OVCAR-5 ovarian", 79.6],
  ["COc1c(N2CC3CCCNC3C2)c(F)cc2c(=O)c(C(=O)N/N=C/c3ccc(N(C)C)cc3)cn(C3CC3)c12 (stereo not given)", "OVCAR-5 ovarian", 95.7],
  ["O=C(CSc1nc2ccccc2c(=O)n1-c1ccccc1)Nc1ccc(-c2nc3ccc([N+](=O)[O-])cc3[nH]2)cc1", "OVCAR-5 ovarian", 86.1],
  ["CN1CCN(Cc2ccc(NC(=O)c3cncc(C#Cc4cnc5ccc(OCC(C)(C)O)nn45)c3)cc2C(F)(F)F)CC1", "OVCAR-5 ovarian", -3.05]
]}

Item: COc1ccccc1C(=O)Nc1cccc2c1C(=O)C(=O)C=C2 | System: OVCAR-5 ovarian | growth: 114

---

Test system: HOP-62 NSCLC
Experiment: NCI-60 one-dose screen, 48 h (100 = growth as untreated, 0 = no growth, -100 = all killed)
Conditions: 10 µM unless noted
This is part of a sample that, as a whole, favours compounds with a hit. Of some 83,000 tested, about 20% had one in any assay.
Exam item: assign Y to entries whose growth is below 90% and N to entries at or above 90%. Note that a value of exactly 90% receives N.

{"columns": ["Compound", "Tested system", "Cat"],
 "data": [
  ["COc1cc(Cn2cc3c(c2)-c2onc(CN4CCCC4)c2CC3)cc(OC)c1OC", "HOP-62 NSCLC", "N"]
]}

Inquiry: Field: below-cutoff. Rule: recorded growth strictly less than 90%. Subject: CCCSc1nc(Nc2ccc(/C(C)=N\NC(N)=S)cc2)c(C#N)c(-c2ccccc2)n1
Reply text: Y

Inquiry: # check: growth < 90% for CS(=O)(=O)Nc1cc(-c2ccc3ncc(C#N)c(NCc4ccccc4F)c3c2)cnc1Cl
Reply text: Y

Inquiry: For this compound, is growth lower than 90%? COc1cc2nc(Cl)nc(Nc3cccc(C4=Nc5c(N)nc(N)nc5NC(c5ccc6c(c5)OCO6)C4)c3)c2cc1OC (stereo not drawn)
Reply text: Y

Inquiry: Does this compound meet the criterion growth < 90%? O=C(NNc1nc2cc(F)c(F)cc2n2c(CN3CC4CNCC4C3)ccc12)c1ncccn1 (stereo not drawn)
Reply text: Y

Inquiry: Please check: growth for O=C(NNc1nc2cc(F)ccc2n2c(CN3CCCC3)ccc12)c1cnccn1 , strictly under 90% or not?
Reply text: Y

Inquiry: A record lists CCCCCc1ccc(S(=O)(=O)Nc2cc(-c3csc(NC(=O)CN4CCN(C)CC4)n3)ccc2OC)cc1 . Is its growth below 90%?
Reply text: Y

Inquiry: Please state whether growth is below 90% for c1ccc(C(c2nc3ncncc3[nH]2)N2CSc3nc4ccccc4n3C2)cc1 (stereo not drawn)
Reply text: N

Inquiry: growth strictly < 90% for this compound? CC[C@]12C=CCN3CC[C@@]4(c5cc(NC(=O)COc6cc(O)c7c(=O)cc(-c8ccccc8)oc7c6)c(OC)cc5N(C)[C@H]4[C@@](O)(C(=O)OC)[C@@H]1OC(C)=O)[C@@H]32
Reply text: Y

Inquiry: Is 90% strictly greater than the compound's reported growth? compound: COc1cccc2c1CN(C(=O)c1ccc(O)c(C(=O)N3Cc4ccc(OCCC[P+](c5ccccc5)(c5ccccc5)c5ccccc5)cc4C3)c1)C2
Reply text: N

Inquiry: Lab note: confirm whether the reported growth for this compound is below 90%, equality not counting. compound: CC(C)(C)c1ccc(-c2nnc(-c3nc4ccccc4nc3Cl)o2)cc1
Reply text: Y

Inquiry: Does O=C(O)c1ccc(-n2cc(CNc3cc(F)c(F)c(F)c3)c(-c3ccc(F)cc3)n2)cc1 have growth strictly under 90%?
Reply text: N

Inquiry: Here's an entry: Cc1ccc(NC(=S)NNC(=S)Nc2ccc(C)cc2)cc1 . Is its growth below 90%?
Reply text: N

Inquiry: Is growth of O=C(Cn1c(-c2ccccc2)nc2cc(Cl)c(Cl)cc21)N=Nc1c(O)[nH]c2ccc(Cl)cc12 strictly below 90%?
Reply text: Y

Inquiry: Lab note: growth threshold 90%. Does this compound come in strictly under it? Cc1ccc2sc3c(c2c1)OC(N)=C(C#N)C3c1cccc(F)c1 (stereo not drawn)
Reply text: Y

Inquiry: I wonder whether CC[C@@H](CO)Nc1ccc2ncc(C#Cc3cncc(C(=O)Nc4ccc(CN5CCN(C)CC5)c(C(F)(F)F)c4)c3)n2n1 has growth below 90%. Can you tell?
Reply text: Y

Inquiry: Strictly below 90%: is that where growth of COc1ccc(C(=O)c2c(N)c(C#N)cn2-c2ccccc2OC)cc1 sits?
Reply text: Y

---

Test system: UACC-62 melanoma
Assay: NCI-60 one-dose screen, 48 h
Details: 10 µM unless noted
The panel holds about 83,000 compounds, 20% with a hit somewhere; the sample as a whole holds those more often. Activity calls are given as the source filed them. How the source made its calls: active means growth percent below 10; inactive means the rest.
Parameter call: string, one of T for active, F for inactive

Illustrative cases are given below, each with its answer.
{"columns": ["Compound", "Cat"],
 "data": [
  ["CCc1cccc2c3c(sc12)C(c1ccc(OC)cc1)C(C#N)=C(/N=C/c1ccc(Cl)cc1)O3 (centres undefined)", "F"],
  ["COc1cc(-c2nnc(SCc3ccc(O)c4ncccc34)n2-c2ccccc2)cc(OC)c1OC", "T"],
  ["COc1ccc(C(=O)CSc2nc3c(c(Nc4ccc(S(N)(=O)=O)cc4)n2)CCCC3)cc1", "F"]
]}

Now take the following compound into account.
Inquiry: # lookup: test call for C=C(C)[C@@H]1CC[C@]2(COP(=O)(OCC)OCC)CC[C@]3(C)[C@H](CC[C@@H]4[C@@]5(C)CCCNC(C)(C)[C@@H]5CC[C@]43C)[C@@H]12
Reply text: F

---

Test system: SF-539 CNS
Test: NCI-60 one-dose screen, 48 h (100 = growth as untreated, 0 = no growth, -100 = all killed)
Conditions: 10 µM unless noted
This is part of a sample that, as a whole, favours compounds with a hit. Of some 83,000 tested, about 20% had one in any assay. Active and inactive are the calls of the source. The calls were made as follows: active = growth percent below 10; inactive = the rest.
Attribute measured: growth

{"columns": ["Compound", "Tested system", "growth"],
 "data": [
  ["O=C(c1ccc(Cl)cc1)C1[C@H](c2ccc(Cl)cc2)[C@@H](c2ccccc2)NC12C(=O)Nc1ccccc12 (some centres not stated)", "SF-539 CNS", "74.8% (inactive)"],
  ["C=C(C)[C@@H]1CC[C@]2(COP(=O)(OCC)OCC)CC[C@]3(C)[C@H](CC[C@@H]4[C@@]5(C)CCCNC(C)(C)[C@@H]5CC[C@]43C)[C@@H]12", "SF-539 CNS", "57.7% (inactive)"],
  ["COc1ccc([C@@H]2c3[nH]c4ccccc4c3C[C@H]3C(=O)N(C4CCN(CC5CCCCC5)CC4)CC(=O)N23)c(OC)c1", "SF-539 CNS", "78.6% (inactive)"],
  ["N#Cc1cccc(CN2CCC3=C(C2)C(=O)N(Cc2ccc(Cl)cc2)C2=NCCN23)c1", "SF-539 CNS", "41.7% (inactive)"],
  ["CCN(CC)c1ccc2c(c1)Oc1nc(N)c(C#N)c(N)c1C2Sc1ccc(C)cc1 (configuration not stated)", "SF-539 CNS", "-97.8% (active)"],
  ["Nc1ncc(-c2ccc3ncnc(Nc4cccc(Cl)c4F)c3c2)cn1", "SF-539 CNS", "68.4% (inactive)"],
  ["Clc1nc2ccccc2nc1-c1nnc(C2CCCCC2)o1", "SF-539 CNS", "97.7% (inactive)"],
  ["C#Cc1nc(/C=C/C(=O)c2nccn2C)cs1", "SF-539 CNS", "-82.7% (active)"],
  ["COc1ccc(-c2nc3cccc(O)c3c(=O)n2Cc2ccccc2)cc1COc1ccc(NC(C)=O)cc1", "SF-539 CNS", "40.1% [3 µM] (inactive)"],
  ["Cc1ccc(-c2nnc(SCc3ccc(O)c4ncccc34)o2)cc1", "SF-539 CNS", "14.9% (inactive)"]
]}

For COc1ccc(COc2ccc(/C=C3\C(=O)Nc4ccccc43)cc2OC)cc1 the compound record lists growth as 95.9% (inactive)

The compound listed as Nc1nc(-c2cccc([N+](=O)[O-])c2)c(N=Nc2ccccc2)s1 has a reported growth of 71.6% (inactive)

Sample c1ccc(C(c2nc3ncncc3[nH]2)N2CSc3nc4ncncc4n3C2)cc1 (configuration not stated) ; growth observed: 49.5% (inactive)

Lookup result for CC(C)(C)n1nnnc1C(Nc1cccc2c1OCO2)c1cc2cccc3ccc4cccc1c4c32 (configuration not stated) ; measured growth: 93% (inactive)

Looking up N#Cc1cnc2ccc(-c3cnc(N)nc3)cc2c1N1CCc2cc(F)c(Cl)cc21 , I see its growth listed as -12.5% (active)

All figures here come from PubChem BioAssay (NCI).
